Tested on: FGFR3 enzyme
protocol.summary: FGFR Enzymatic Assay (FRET peptide phosphorylation), FGFR3
Assay type: biochemical
assay.context: IC50 ratio showing FGFR3 selectivity; Table 2A, pre-incubated for 4 hours
Field: FGFR1/FGFR3. Provide a value for each of the compounds that follow.

Recorded FGFR1/FGFR3 for COc1cc(OC)c(F)c(N2Cc3cnc(-c4cn(C)nc4C)cc3N(c3ccc4[nH]ncc4c3)C2=O)c1F , please?
>3

Find the recorded FGFR1/FGFR3 belonging to COc1cc(OC)c(F)c(N2Cc3cnc(-c4cn(C)nc4C)cc3N(c3ccn(C)n3)C2=O)c1F and report it.
>5

What value of FGFR1/FGFR3 has been recorded for this entry: COc1cc(OC)c(F)c(N2Cc3cnc(-c4cn(C)nc4C)cc3N(Cc3cnn(C4CC4)c3)C2=O)c1F
>10

Consider the compound shown here: COc1cc(OC)c(F)c(N2Cc3cnc(-c4ccc(C5(C#N)CCC5)nc4)cc3N(c3cnn(C)c3)C2=O)c1F What is its recorded FGFR1/FGFR3?
>5

For the compound shown here, COc1cc(OC)c(F)c(N2Cc3cnc(-c4cn(C)nc4C)cc3N(Cc3ccccn3)C2=O)c1F , give the reported FGFR1/FGFR3.
>5

Could you share which FGFR1/FGFR3 value was measured for COc1cc(OC)c(F)c(N2Cc3cnc(-c4cn(C)nc4C)cc3C3(CC3)C2=O)c1F ?
>5

I am curious: what FGFR1/FGFR3 value has been reported for COc1cc(OC)c(F)c(N2Cc3cnc(-c4cnn(CCN5CCC(OC)CC5)c4)cc3C3(CC3)C2=O)c1F ?
>5

* * *

Exercise: state measured FGFR4/FGFR3 for each of the compounds provided.
Tested on: FGFR3 enzyme
protocol.summary: FGFR Enzymatic Assay (FRET peptide phosphorylation), FGFR3
Assay type: biochemical
assay.context: IC50 ratio showing FGFR3 selectivity; Table 2A, pre-incubated for 4 hours

Entry CCCNC(=O)c1ccc(-c2cc3c(cn2)CN(c2c(F)c(OC)cc(OC)c2F)C(=O)N3CC)cn1 : reported FGFR4/FGFR3 = ?
>10

So what does the record say about FGFR4/FGFR3 for COc1cc(OC)c(F)c(N2Cc3cnc(-c4cn(C)nc4C)cc3N(Cc3nnc(C)o3)C2=O)c1F ?
>10

Which FGFR4/FGFR3 is listed for COc1cc(OC)c(F)c(N2Cc3cnc(-c4csc(N(C)C)n4)cc3C3(CC3)C2=O)c1F ?
>5

Query: FGFR4/FGFR3; subject: COc1cc(OC)c(F)c(N2Cc3cnc(-c4cn(C)nc4C)cc3N(c3ccc(F)c(F)c3)C2=O)c1F
>10

// FGFR4/FGFR3 lookup, key: COc1cc(OC)c(F)c(N2Cc3cnc(-c4cnn(CCN5CCC(OC)CC5)c4)cc3C3(CC3)C2=O)c1F
>3

Entry COc1cc(OC)c(F)c(N2Cc3cnc(-c4cn(C)nc4C)cc3N(Cc3cnn(C)c3)C2=O)c1F has what FGFR4/FGFR3?
>10

Request the reported FGFR4/FGFR3 associated with COc1cc(OC)c(F)c(N2Cc3cnc(-c4cn(C)nc4C)cc3N(C3CCN(S(C)(=O)=O)CC3)C2=O)c1F
>3

Which FGFR4/FGFR3 value is on record for CCN1C(=O)N(c2c(F)c(OC)cc(OC)c2F)Cc2cnc(-c3ccc(C(=O)NC4CC4)nc3)cc21 ?
>5

Would you kindly share the measured FGFR4/FGFR3 for CCCN1C(=O)N(c2c(F)c(OC)cc(OC)c2F)Cc2cnc(-c3cn(C)nc3C)cc21 ?
>5

What FGFR4/FGFR3 value was documented for this compound, CCN1C(=O)N(c2c(F)c(OC)cc(OC)c2F)Cc2cnc(-c3cnn(C)c3)cc21 ?
>5

Looking for the measured FGFR4/FGFR3 of COC(=O)Nc1ccc(N2C(=O)N(c3c(F)c(OC)cc(OC)c3F)Cc3cnc(-c4cn(C)nc4C)cc32)cc1 , can you help?
>3

Query: FGFR4/FGFR3; subject: CCN1C(=O)N(c2c(F)c(OC)cc(OC)c2F)Cc2cnc(-c3ccc(C4(C#N)CC4)cc3)cc21
>10

Give its FGFR4/FGFR3 value. Item: CCCn1cc(N2C(=O)N(c3c(F)c(OC)cc(OC)c3F)Cc3cnc(-c4cn(C)nc4C)cc32)cn1
>5

Entry under review: CCN1C(=O)N(c2c(F)c(OC)cc(OC)c2F)Cc2cnc(-c3ccc(CC#N)cc3)cc21 . Reported FGFR4/FGFR3?
>5

Query (compound): COc1cc(OC)c(F)c(N2Cc3cnc(-c4cn(C)nc4C)cc3N(c3cnccn3)C2=O)c1F ; field requested: FGFR4/FGFR3
>5

* * *

Test system: FGFR3 enzyme
protocol.summary: FGFR Enzymatic Assay (FRET peptide phosphorylation), FGFR3
Assay type: biochemical
assay.context: IC50 ratio showing FGFR3 selectivity; Table 2A, pre-incubated for 4 hours
I'd be grateful if you could share measured FGFR1/FGFR3 for these entries.

Enter reported FGFR1/FGFR3 observed with FGFR3 enzyme for COc1cncc(-c2cc3c(cn2)CN(c2c(F)c(OC)cc(OC)c2F)C(=O)C32CC2)c1 [Example 10]
>1

API: value(readout=FGFR1/FGFR3, system=FGFR3 enzyme) for record CCN1C(=O)N(c2c(F)c(OC)cc(OC)c2F)Cc2cnc(-c3ccc(C4(C#N)CC4)cc3)cc21 [Example 183]
>3

Tell me reported FGFR1/FGFR3 for COc1cc(OC)c(F)c(N2Cc3cnc(-c4cn(C)nc4C)cc3N(Cc3cnccn3)C2=O)c1F [Example 85] , tested with FGFR3 enzyme.
>5

Notebook entry, FGFR3 enzyme assay: FGFR1/FGFR3 of CCN1C(=O)N(c2c(F)c(OC)cc(OC)c2F)Cc2cnc(-c3ccc(C(N)=O)nc3)cc21 [Example 184] = ?
>5

Form field: FGFR1/FGFR3 recorded for COc1cc(OC)c(F)c(N2Cc3cnc(-c4cn(C)nc4C)cc3N(c3ccc(C#N)cn3)C2=O)c1F [Example 79] with FGFR3 enzyme (enter value)
>5

* * *

target.system: UniProtKB P22455
Sequence (P22455 22-802): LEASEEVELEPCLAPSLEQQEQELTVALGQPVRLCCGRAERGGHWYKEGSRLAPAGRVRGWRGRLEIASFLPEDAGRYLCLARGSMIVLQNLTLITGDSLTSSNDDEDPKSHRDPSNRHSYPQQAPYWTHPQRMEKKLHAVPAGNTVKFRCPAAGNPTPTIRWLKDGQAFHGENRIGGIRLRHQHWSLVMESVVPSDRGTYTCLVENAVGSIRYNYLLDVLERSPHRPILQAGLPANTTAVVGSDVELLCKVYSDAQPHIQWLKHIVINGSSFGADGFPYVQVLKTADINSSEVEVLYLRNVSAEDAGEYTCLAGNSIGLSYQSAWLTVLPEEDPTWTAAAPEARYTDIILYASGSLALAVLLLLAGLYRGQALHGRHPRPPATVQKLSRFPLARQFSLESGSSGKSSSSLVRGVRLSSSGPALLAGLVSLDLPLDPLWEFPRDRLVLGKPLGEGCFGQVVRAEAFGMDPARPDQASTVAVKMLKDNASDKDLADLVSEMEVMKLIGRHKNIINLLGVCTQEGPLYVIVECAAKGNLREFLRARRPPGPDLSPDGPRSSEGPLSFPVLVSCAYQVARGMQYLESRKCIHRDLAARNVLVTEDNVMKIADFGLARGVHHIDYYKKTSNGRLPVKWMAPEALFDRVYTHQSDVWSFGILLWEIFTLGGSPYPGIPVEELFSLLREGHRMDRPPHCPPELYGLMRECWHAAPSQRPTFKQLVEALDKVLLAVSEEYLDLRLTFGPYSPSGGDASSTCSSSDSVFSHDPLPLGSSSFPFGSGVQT
protocol.summary: FGFR Enzymatic Assay (FRET peptide phosphorylation), FGFR4
Format: biochemical
assay.context: ratio of IC50 data showing FGFR4 selectivity; Table 4, pre-incubated for 5 to 10 minutes
Description: The inhibitor potency of the exemplified compounds was measured in an enzyme assay that measures peptide phosphorylation using FRET measurements to detect product formation. Inhibitors were serially diluted in DMSO and a volume of 0.5 μL was transferred to the wells of a 384-well plate. The enzymes were purchased from Millipore or Invitrogen. GraphPad prism3 was used to analyze the data.
quantity: FGFR2/FGFR4

Form entry - test system: UniProtKB P22455; read-out: FGFR2/FGFR4; compound: COc1cc(OC)c(F)c(N2Cc3cnc(-c4cncc(F)c4)cc3C3(CC3)C2=O)c1F
>5

Give UniProtKB P22455 FGFR2/FGFR4 for COc1cc(OC)c(F)c(N2Cc3cnc(-c4cncc(N)c4)cc3C3(CC3)C2=O)c1F
>10

Please provide the recorded FGFR2/FGFR4 for COc1cc(OC)c(F)c(N2Cc3cnc(-c4cc(N)ccc4C#N)cc3C3(CC3)C2=O)c1F , tested on UniProtKB P22455.
>25

Please provide the recorded FGFR2/FGFR4 for COc1cc(OC)c(F)c(N2Cc3cnc(-c4cncc(NS(C)(=O)=O)c4)cc3C3(CC3)C2=O)c1F , tested on UniProtKB P22455.
>25

Test system UniProtKB P22455; read-out FGFR2/FGFR4; what value for COc1cc(OC)c(F)c(N2Cc3cnc(-c4cccnc4)cc3C3(CC3)C2=O)c1F ?
>1

Record lookup: for UniProtKB P22455, what FGFR2/FGFR4 belongs to COc1cc(OC)c(F)c(N2Cc3cnc(-c4cncc(CN5CCOCC5)c4)cc3C3(CC3)C2=O)c1F ?
>10

Give FGFR2/FGFR4 (UniProtKB P22455) of the following compound: COc1cc(OC)c(F)c(N2Cc3cnc(-c4cncc(S(=O)(=O)N5CCOCC5)c4)cc3C3(CC3)C2=O)c1F
>5

Entry COc1cc(OC)c(F)c(N2Cc3cnc(-c4cc(N)c(F)cc4C)cc3C3(CC3)C2=O)c1F , system UniProtKB P22455: what FGFR2/FGFR4 was measured?
>10

What is its FGFR2/FGFR4 for UniProtKB P22455? Entry: COc1cc(OC)c(F)c(N2Cc3cnc(-c4cncc(C(=O)N5CCOCC5)c4)cc3C3(CC3)C2=O)c1F
>20

Field: FGFR2/FGFR4 (UniProtKB P22455). Entry: COc1cc(OC)c(F)c(N2Cc3cnc(-c4cc(N)ccc4C)cc3C3(CC3)C2=O)c1F
>25

* * *

Give measured FGFR1/FGFR3 for each item. Keep answers brief.
Tested on: FGFR3 enzyme
protocol.summary: FGFR Enzymatic Assay (FRET peptide phosphorylation), FGFR3
Format: biochemical
assay.context: IC50 ratio showing FGFR3 selectivity; Table 2A, pre-incubated for 4 hours

Look up FGFR1/FGFR3: COc1cc(OC)c(F)c(N2Cc3cnc(-c4cncc(F)c4)cc3C3(CC3)C2=O)c1F
>3

I am curious: what FGFR1/FGFR3 value has been reported for COc1cccc(N2C(=O)N(c3c(F)c(OC)cc(OC)c3F)Cc3cnc(-c4cn(C)nc4C)cc32)c1 ?
>3

Name the recorded FGFR1/FGFR3 for CCN1C(=O)N(c2c(F)c(OC)cc(OC)c2F)Cc2cnc(-c3cn(CC(=O)N4CCOCC4)nc3C)cc21 .
>1
